Assignment: determine reported pIC50 for the given molecules.
methodSummary: Inhibition of asexual blood stage of Plasmodium falciparum 3D7 PKA assessed as inhibition of parasite proliferation after 72 hrs by Malstat assay
Give bare numbers, as −log10 of the molar value.

Check out these entries, answers already filled in.
Cc1nc(N)c2ccccc2c1C#N | 4.47
CCCCNc1nc(C)c(C#N)c2ccccc12 | 4.47

Could you now look at the following molecule, please?
Asked: Consider the molecule CCCCNc1nc(CC)c(C#N)c2ccccc12 and give its measured pIC50.
Given back: 4.60

###

methodSummary: Inhibition of asexual blood stage of Plasmodium falciparum 3D7 PKA assessed as inhibition of parasite proliferation after 72 hrs by Malstat assay
Assignment: determine reported pIC50 for the given compounds.
Give bare numbers, as −log10 of the molar value.

Check out these entries, answers already filled in.
CCCCOc1nc(C)c(C#N)c2ccccc12 | 4.44
Cc1nc(NC(C)(C)C)c2ccccc2c1C#N | 5.28

Asked: Consider the compound CCCCCNc1nc(C)c(C#N)c2ccccc12 and give its measured pIC50.
Given back: 5.07
